These measurements were taken from patent US11273153B2.

- Measured On: active phosphorylated p38α MAPK (Homo sapiens (Human))
- Assay: Fluorescence polarisation (FP) binding assay, active enzyme
- Condition Set: Table 6; read-out: Ki ± SEM (μM) to active p38α
Reported Ki is given for each of the following compounds.
Respond with the bare value in µM.

Example cases with answers are listed next.
Compound | Obs Value
NC(=O)c1cccc(-c2c(C#CCCO)sc(-c3ccc(F)cc3)c2-c2ccncc2)c1 [Compound 3.35] | 2.2
O=C(c1ccco1)c1cc(-c2ccncc2)c(-c2ccc(F)cc2)s1 [Compound 5.17] | 2.5
COC(=O)c1cccc(-c2c(C#CCCO)sc(-c3ccc(F)cc3)c2-c2ccncc2)c1 [Compound 3.29] | 3

Fill in the recorded Ki for this compound, with active phosphorylated p38α MAPK (Homo sapiens (Human)) as test system: Fc1ccc(-c2sc(-c3c(F)c(F)nc(F)c3F)cc2-c2ccncc2)cc1 [Compound 5.19]
0.8

Fill in the recorded Ki for this compound, with active phosphorylated p38α MAPK (Homo sapiens (Human)) as test system: NC(=O)c1ccc(-c2c(C#CCCO)sc(-c3ccc(F)cc3)c2-c2ccncc2)cc1 [Compound 3.36]
2

Fill in the recorded Ki for this compound, with active phosphorylated p38α MAPK (Homo sapiens (Human)) as test system: OCCC#Cc1sc(-c2ccc(F)cc2)c(-c2ccncc2)c1-c1ccc(F)cc1 [Compound 3.50]
0.9

---

Reported Ki is given for each of the following compounds.
- Measured On: inactive non-phosphorylated p38α MAPK (Homo sapiens (Human), UniProt Q16539)
- Sequence (Q16539 whole entry): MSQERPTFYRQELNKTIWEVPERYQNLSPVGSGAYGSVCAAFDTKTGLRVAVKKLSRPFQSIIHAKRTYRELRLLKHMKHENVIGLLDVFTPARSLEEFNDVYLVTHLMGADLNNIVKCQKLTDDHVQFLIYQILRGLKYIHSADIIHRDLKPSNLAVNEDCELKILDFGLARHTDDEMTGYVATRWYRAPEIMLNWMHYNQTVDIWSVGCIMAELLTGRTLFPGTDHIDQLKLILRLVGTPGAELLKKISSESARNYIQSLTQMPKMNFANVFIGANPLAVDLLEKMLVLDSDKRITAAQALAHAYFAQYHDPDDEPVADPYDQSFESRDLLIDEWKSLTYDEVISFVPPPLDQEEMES
- Assay: Fluorescence polarisation (FP) binding assay, inactive enzyme
- Condition Set: Table 6; read-out: Ki ± SEM (μM) to inactive p38α
- Method: A number of compounds were also assessed for the inhibition of p38α MAPK activity (www.kinase-screen.mrc.ac.uk) in which a radioactive (^33P-labelled ATP) filter binding assay was used to directly measure phosphate incorporation. […] FP signals were measured with a PHERAstar microplate reader (BMG Labtech) using black, low-binding half-area 96 well plates (Corning). […]

Fill in the recorded Ki for this compound, with inactive non-phosphorylated p38α MAPK (Homo sapiens (Human), UniProt Q16539) as test system: COC(=O)c1cccc(-c2c(C#CCCO)sc(-c3ccc(F)cc3)c2-c2ccncc2)c1 [Compound 3.29]
> 10 µM

Fill in the recorded Ki for this compound, with inactive non-phosphorylated p38α MAPK (Homo sapiens (Human), UniProt Q16539) as test system: Fc1ccc(-c2scc(C#CCc3ccccc3)c2-c2ccncc2)cc1 [Compound 4.19]
> 10 µM

---

- Measured On: inactive non-phosphorylated p38α MAPK (Homo sapiens (Human), UniProt Q16539)
- Assay: Fluorescence polarisation (FP) binding assay, inactive enzyme
- Condition Set: Table 5; read-out: Ki ± SEM (μM) to inactive p38α MAPK
Endpoint Name: Ki (µM)
Respond with the bare value in µM.

Compound | Ki [µM]
CCOC(=O)c1cc(-c2ccncc2)c(-c2ccc(F)cc2)s1 [Compound 5.11] | 6

Now consider a different compound.
Which value of Ki has been reported for O=C(c1ccco1)c1cc(-c2ccncc2)c(-c2ccc(F)cc2)s1 [Compound 5.17] in the records?
5.9

---

- Measured On: active phosphorylated p38α MAPK (Homo sapiens (Human))
- Assay: Fluorescence polarisation (FP) binding assay, active enzyme
- Condition Set: Table 6; read-out: Ki ± SEM (μM) to active p38α
Reported Ki is given for each of the following molecules.
Respond with the bare value in µM.

Which value of Ki has been reported for CC(=O)Nc1cccc(-c2c(C#CCCO)sc(-c3ccc(F)cc3)c2-c2ccncc2)c1 [Compound 3.41] in the records?
2

Which value of Ki has been reported for OCCCC#Cc1cc(-c2ccncc2)c(-c2ccc(F)cc2)s1 [Compound 5.3] in the records?
0.8

Which value of Ki has been reported for OCCC#Cc1sc(-c2ccc(F)cc2)c(-c2ccncc2)c1C(O)CCc1ccccc1 (stereo not drawn) [Compound 4.6] in the records?
3.9

Which value of Ki has been reported for Fc1ccc(-c2scc(CCCc3ccccc3)c2-c2ccncc2)cc1 [Compound 4.18] in the records?
0.72

Which value of Ki has been reported for OCCC#Cc1sc(-c2ccc(F)cc2)c(-c2ccncc2)c1-c1cccc(CO)c1 [Compound 3.33] in the records?
1.3

Which value of Ki has been reported for CC(=O)c1cc(-c2ccncc2)c(-c2ccc(F)cc2)s1 [Compound 5.15] in the records?
1.4

Which value of Ki has been reported for NCCC#Cc1cc(-c2ccncc2)c(-c2ccc(F)cc2)s1 [Compound 5.7] in the records?
0.19

Which value of Ki has been reported for O=C(O)c1cc(-c2ccncc2)c(-c2ccc(F)cc2)s1 [Compound 5.12] in the records?
1.4

---

- Measured On: inactive non-phosphorylated p38α MAPK (Homo sapiens (Human))
- Assay: Fluorescence polarisation (FP) binding assay, inactive enzyme
- Condition Set: Table 6; read-out: Ki ± SEM (μM) to inactive p38α
Reported Ki is given for each of the following compounds.

Compound | Ki
Cc1cccc(-c2c(C#CCCO)sc(-c3ccc(F)cc3)c2-c2ccncc2)c1 | > 10 µM
Nc1ccc(-c2c(C#CCCO)sc(-c3ccc(F)cc3)c2-c2ccncc2)cc1 | > 10 µM
NC(=O)c1ccc(-c2c(C#CCCO)sc(-c3ccc(F)cc3)c2-c2ccncc2)cc1 | > 10 µM
Nc1cccc(-c2c(C#CCCO)sc(-c3ccc(F)cc3)c2-c2ccncc2)c1 | > 10 µM
COC(=O)c1ccccc1-c1c(C#CCCO)sc(-c2ccc(F)cc2)c1-c1ccncc1 | > 10 µM

Which value of Ki has been reported for OCCC#Cc1nc(-c2ccc(F)cc2)c(-c2ccncc2)n1CCCc1ccccc1 [RWJ67657, reference compound] in the records?
0.21 µM

Which value of Ki has been reported for "Fc1ccc(-c2sc(I)c(I)c2-c2ccncc2)cc1" in the records?
> 10 µM

Which value of Ki has been reported for "OCCCCc1cc(-c2ccncc2)c(-c2ccc(F)cc2)s1" in the records?
0.98 µM

Which value of Ki has been reported for "O=C(O)c1ccc(-c2c(C#CCCO)sc(-c3ccc(F)cc3)c2-c2ccncc2)cc1" in the records?
> 10 µM

Which value of Ki has been reported for "OCCC#Cc1sc(-c2ccc(F)cc2)c(-c2ccncc2)c1I" in the records?
> 10 µM

Which value of Ki has been reported for "Fc1ccc(-c2sc(I)cc2-c2ccncc2)cc1" in the records?
1.9 µM

Which value of Ki has been reported for "COC(=O)c1ccc(-c2c(C#CCCO)sc(-c3ccc(F)cc3)c2-c2ccncc2)cc1" in the records?
> 10 µM

Which value of Ki has been reported for "Cc1ccc(S(=O)(=O)Nc2cccc(-c3c(C#CCCO)sc(-c4ccc(F)cc4)c3-c3ccncc3)c2)cc1" in the records?
> 10 µM

Which value of Ki has been reported for "N#Cc1cccc(-c2c(C#CCCO)sc(-c3ccc(F)cc3)c2-c2ccncc2)c1" in the records?
> 10 µM

Which value of Ki has been reported for "OCCC#Cc1sc(-c2ccc(F)cc2)c(-c2ccncc2)c1-c1ccc(F)cc1" in the records?
> 10 µM

Which value of Ki has been reported for "NC(=O)c1cccc(-c2c(C#CCCO)sc(-c3ccc(F)cc3)c2-c2ccncc2)c1" in the records?
> 10 µM

Which value of Ki has been reported for "OCCC#Cc1sc(-c2ccc(F)cc2)c(-c2ccncc2)c1-c1ccc(O)cc1" in the records?
> 10 µM

Which value of Ki has been reported for "Cc1ccc(S(=O)(=O)Nc2ccc(-c3c(C#CCCO)sc(-c4ccc(F)cc4)c3-c3ccncc3)cc2)cc1" in the records?
> 10 µM
